- System: breast cancer MDA-MB-231 cells
- Assay procedure: cells
- Format: cell-based
- Setup conditions: MTS assay, cisplatin, 48 h of cell incubation, mean ± SD; read-out: IC50, MDA-MB-231
pIC50: −log10 of the molar value.
Assay endpoint: pIC50

Molecule | Measured value
N.N.[Cl][Pt][Cl] [Cisplatin, cisplatin, reference compound] | 4.46
